Assay: NOVARTIS: Cytotoxicity against human hepatocellular carcinoma cell line (Huh7)
Assay type: toxicity, cell-based, Huh-7
Details: Huh7 cells (hepatocellular carcinoma cell line)
# maps each entry to its CC50

molecule	CC50
CCOC(=O)c1ccc(NC2=C(N3CCCCC3)C(=O)c3ccccc3C2=O)cc1	> 80.5 µM
COc1ccc(C(=O)Nc2ccc3nsnc3c2)cc1OC	> 10 µM
CCCCC(=O)N(C/C=C/c1ccccc1OC)CCN1CCN(C(=O)NC23CC4CC(CC(C4)C2)C3)CC1	> 10 µM
COC(=O)C1=CN(Cc2ccc(OC)cc2)C=C(C(=O)OC)C1c1cccs1	> 100 µM
Cc1ccc(F)cc1NC(=O)c1cc(Cl)ccc1Nc1ccccc1	> 100 µM
c1ccc(Nc2nc(NCC3CCCO3)c3ccccc3n2)cc1 (stereo not drawn)	> 10 µM
CN(C)c1ccc(C=C2SC(=Nc3ccccc3)NC2=O)cc1	> 74.4 µM
CC(C)(C)CC(C)(C)Nc1c(-c2ccccc2OC(=O)c2cccc(Br)c2)nc2ccccn12	> 100 µM

###

Form field: CC50 (one value per entry).
Assay: NOVARTIS: Cytotoxicity against human hepatocellular carcinoma cell line (Huh7)
Type: toxicity, cell-based, Huh-7
Details: Huh7 cells (hepatocellular carcinoma cell line)
property: CC50

molecule	observed_measurement
O=C(Nc1cccc(Cl)c1)c1cc2ccccc2cc1O	7.89 µM
CC(C)CN1C(=O)c2ccccc2C(C(=O)Nc2cccc(C(F)(F)F)c2)C1c1cccs1 (stereo not drawn)	> 100 µM
Cc1ccc(O)c(Nc2c3c(c(C#N)c4nc5ccccc5n24)CCC3)c1	> 10 µM
CCN(CC)CCCNC(=S)N(Cc1ccccc1)Cc1cc2cc(C)c(Cl)cc2[nH]c1=O	20.9 µM
CC12CCC(C(=O)N(CC(O)Cn3c4ccc(Cl)cc4c4cc(Cl)ccc43)C1=O)C2(C)C (stereo not drawn)	> 100 µM
Cc1cccc(N2C(=O)C3C(C2=O)C2(c4ccccc4)C(=O)C3(c3ccccc3)C(c3ccc4c(c3)OCO4)=C2c2ccc3c(c2)OCO3)c1 (stereo not drawn)	> 100 µM
CO[C@H](C(=O)[C@@H](O)[C@@H](C)O)[C@@H]1Cc2cc3cc(O[C@H]4C[C@@H](O[C@@H]5C[C@@H](O)[C@@H](O)[C@@H](C)O5)[C@@H](O)[C@H](C)O4)c(C)c(O)c3c(O)c2C(=O)[C@H]1O[C@H]1C[C@@H](O[C@H]2C[C@@H](O[C@H]3C[C@](C)(O)[C@@H](O)[C@H](C)O3)[C@H](O)[C@@H](C)O2)[C@H](O)[C@H](C)O1	> 10 µM
COc1ccc(Nc2nc(NN=Cc3cc4c(cc3Br)OCO4)nc(Nc3ccc([N+](=O)[O-])cc3)n2)cc1	> 100 µM
Nc1nc(N)c2cc(S(=O)(=O)N3CCOCC3)ccc2n1	5.05 µM
Cc1nc2cc(-c3ccc(F)cc3)nn2c(NCCCn2ccnc2)c1C	> 10 µM
C=C[C@H]1CN2CC[C@H]1C[C@@H]2[C@@H](OC(=O)CCCCl)c1ccnc2ccccc12	> 10 µM
COC(=O)c1[nH]c2ccc(Cl)cc2c1NC(=O)C(C)N1CCN(C2CCCCC2)CC1 (stereo not drawn)	> 100 µM
CCCn1nc(Oc2nc(NCC)cc(OC)n2)ccc1=O	> 100 µM
Ic1ccc(NCc2cn3ccccc3n2)cc1	> 100 µM
Cc1ccc2ncnc(Nc3cccc(C(F)(F)F)c3)c2c1	27.9 µM
Cc1ccc(NC(=O)c2cc(C(=O)c3cc(Cl)ccc3O)cn(-c3ccc(C)cc3C)c2=O)c(C)c1	59 µM
COc1ccc(C2CC(=O)C3=C(C2)NC(C)=C(C(=O)OC2CCCC2)C3c2ccc(OC)cc2)cc1 (stereo not drawn)	> 100 µM
Cn1c(=O)n(C)c2cc(NC(=O)CCl)ccc21	12.2 µM

###

Assay: NOVARTIS: Cytotoxicity against human hepatocellular carcinoma cell line (Huh7)
Assay type: toxicity, cell-based, Huh-7
Conditions: Huh7 cells (hepatocellular carcinoma cell line)
In this section we review reported CC50 values for a set of molecules.

molecule	CC50
Clc1ccc(NCn2nnc3ccccc32)nc1	> 100 µM
CC(Cc1ccccc1Sc1ccccc1O)N(C)C (centres undefined)	34 µM
CC(C)[C@@]1(NC(=O)[C@@H]2C[C@@H]3c4cccc5[nH]cc(c45)C[C@H]3N(C)C2)O[C@@]2(O)[C@@H]3CCCN3C(=O)[C@H](CC3CCCCC3)N2C1=O	> 11.4 µM
COc1cc(C=C(C#N)c2nc3ccccc3[nH]2)ccc1OCc1ccccc1	> 100 µM

###

Tested on: Plasmodium falciparum
Test: NOVARTIS: Inhibition of Plasmodium falciparum 3D7 (drug-susceptible) proliferation in erythrocyte-based infection assay
Type: functional, organism-based
Conditions: Plasmodium falciparum, 3D7
Each entry below carries its recorded EC50.
property: EC50

compound	observed_measurement
O=C(Nc1ccc(-c2nc3ccc(-c4nc5ccc(NC(=O)c6ccccc6[N+](=O)[O-])cc5[nH]4)cc3[nH]2)cc1)c1ccccc1[N+](=O)[O-]	> 1.25 µM
CC1(C)Oc2ccc3ccc(=O)oc3c2CC1=NNC(N)=S	> 12.5 µM
O=C(c1ccncc1)N1N=C(C(F)(F)F)CC1(O)c1cccc([N+](=O)[O-])c1 (stereo unspecified)	> 1.22 µM
CCCCCN(C(=O)c1cccc([N+](=O)[O-])c1)C(CC)c1nc2ccccc2c(=O)n1-c1ccccc1OC (stereo unspecified)	> 1.25 µM
CCCN1CCC(c2nc(N3CCOCC3)ncc2-c2cc(C)no2)CC1	> 0.433 µM
Cn1c(C(C#N)C(=S)NC2CCCCC2)nc2cccnc21 (stereo unspecified)	> 1.25 µM

###

System: Plasmodium falciparum
Experiment: NOVARTIS: Inhibition of Plasmodium falciparum W2 (drug-resistant) proliferation in erythrocyte-based infection assay
Format: functional, organism-based
Settings: Plasmodium falciparum, W2; read-out: EC50
// classify: if (EC50 < 800 nM) Satisfied else Not satisfied

molecule	classification
COC(=O)c1c(-c2ccccc2Cl)csc1N	Not satisfied
O=C(c1cccs1)N(Cc1cccs1)c1ccc([N+](=O)[O-])cc1	Not satisfied
COc1cc2nc(Nc3ccc(F)cc3)nc(N)c2cc1OC	Satisfied
Cc1cccc(C)c1OCC(=O)Nc1ccccc1O	Not satisfied
CC(C)(C)c1ccc2[nH]c3c(c2c1)CCCC3=NO	Not satisfied
COC(=O)[C@@H]1C[C@@H](NC(=O)c2ccc(OC)cc2OC)CN1Cc1cccc2ccccc12	Not satisfied
COc1cc(-c2cc(C(F)(F)F)n3ncc(C(=O)Nc4cc(C)ccc4O)c3n2)cc(OC)c1OC	Satisfied
CCCCNCC(O)(c1ccc(Cl)cc1)c1ccc(Cl)cc1	Satisfied
O=C(NC(CN1CCCC1)c1ccccc1)C1CCCCN1S(=O)(=O)c1ccccc1 (stereo unspecified)	Not satisfied

###

Experiment: NOVARTIS: Cytotoxicity against human hepatocellular carcinoma cell line (Huh7)
Assay type: toxicity, cell-based, Huh-7
Settings: Huh7 cells (hepatocellular carcinoma cell line)
property: CC50

molecule	observed_measurement
CC(C)(C)C1=CC(=C2C=C(C(C)(C)C)SC(C(C)(C)C)=C2)C=C(C(C)(C)C)S1	> 10 µM
CCOC(=O)C1=C(C)NC2=C(C(=O)CC(c3ccccc3)C2)C1c1ccccc1Cl (stereo not drawn)	> 100 µM
CCC1CN2CCc3cc(OC)c(OC)cc3C2CC1CC1NCCc2cc(OC)c(OC)cc21 (stereo not drawn)	23.7 µM
COc1ccc(N=C2NC(=O)/C(=C\c3ccc(N(C)C)cc3)S2)cc1	> 10 µM
Cc1ccc(-n2c(SCc3cc(=O)n4ccccc4n3)nc3ccsc3c2=O)cc1C	> 10 µM
Cn1c(-c2ccc([N+](=O)[O-])cc2)[n+](C)c2ccccc21	> 100 µM
CCOC(=O)NC(=O)N1CCC(c2nc(-c3cc(C(C)(C)C)c(O)c(C(C)(C)C)c3)cs2)CC1	> 10 µM
Cc1cc(N2CCCCC2)nc2ccc(NC(=O)c3cccc([N+](=O)[O-])c3)cc12	> 100 µM
COC(=O)C1CCCN1S(=O)(=O)c1ccc2ccccc2c1 (stereo not drawn)	> 100 µM
CCOC(=O)C1=C(C)NC2=C(C(=O)CC(c3ccc(OC)c(OC)c3)C2)C1c1ccccc1C (stereo not drawn)	> 100 µM
O=C(ON=C(c1ccncc1)c1ccc(Cl)cc1)c1ccccc1	> 10 µM
CCN1/C(=C/c2cccc[n+]2C)Sc2cc(NC(C)=O)ccc21	> 10 µM
c1cc2cc3c(cc2c2cc4c(cc12)C[N+]1(CCCC1)C4)C[N+]1(CCCC1)C3	> 100 µM
COC(=O)c1ccc(C2C3=C(CC(c4ccc(OC)cc4)CC3=O)Nc3ccccc3N2C(=O)c2ccccc2)cc1 (stereo not drawn)	> 100 µM
CSc1cccc(NC(=O)C2C3C=CC4(O3)C2C(=O)N(CCN2CCCCC2)C4C(=O)NC2CCCC(C)C2C)c1 (stereo not drawn)	48.1 µM
CCOC(=O)C1=C(C)N=c2sc(=Cc3cccc(OCc4cccc5ccccc45)c3)c(=O)n2C1c1ccc(OC)cc1OC (stereo not drawn)	> 100 µM
CN1C(=O)N(C)C2(c3ccccc3)NN3C(=NC12c1ccccc1)SC1=C3C(=O)c2ccccc2C1=O (stereo not drawn)	> 100 µM
O=C(Oc1ccccc1N1C(=O)C2C3C=CC(C3)C2C1=O)c1ccc([N+](=O)[O-])cc1 (stereo not drawn)	> 100 µM
